Recorded values, source patent US20130253056A1.

Protocol notes: in vitro
Observable: recovery at 15 min (%)
One number for each entry, in %.

Give the reported value of recovery at 15 min for this record: "CC(C)OC(=O)[C@@H](N)Cc1ccc(O)c(O)c1" 0
